- TARGET ENTITY: T1, Human CXCR2 (human, UniProt P25025 1-360)
- T1 construct: Some cell lines carry an N-terminal 3xHA tag; also called hCXCR2; huCXCR2
- T1 sequence: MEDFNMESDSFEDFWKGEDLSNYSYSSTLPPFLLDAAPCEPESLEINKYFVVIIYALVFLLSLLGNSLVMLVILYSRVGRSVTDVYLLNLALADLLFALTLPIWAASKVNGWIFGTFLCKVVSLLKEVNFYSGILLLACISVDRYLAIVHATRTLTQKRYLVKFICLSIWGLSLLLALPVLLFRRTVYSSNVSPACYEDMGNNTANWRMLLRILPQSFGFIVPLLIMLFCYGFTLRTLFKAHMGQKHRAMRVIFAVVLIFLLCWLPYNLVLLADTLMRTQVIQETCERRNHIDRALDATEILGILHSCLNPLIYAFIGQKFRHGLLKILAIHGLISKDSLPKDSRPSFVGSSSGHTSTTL
- EXPERIMENT SUMMARY: FACS competition vs 3 nM FMAT-Blue Gro-α
PROPERTY MEASURED: % inhibition of max (%)

INSERT INTO measurements (binder, measurement_units, test_value) VALUES
  ('CXCR20025 (bispecific antibody, Biparatopic: two VHH joined by a GlySer linker; also called 163D2-35GS-127D1; not shown: C-terminal c-myc tag and His6 tag coded by pAX100) EVQLVESGGGLVQAGGSLRLSCAASGRTFSDYAMGWFRQAPGKEREFVAAITWNGGRVFYTASVKGRFTISRDNAKNTMYLQMNSLKPEDTAVYYCAADKDRRTDYLGHPVAYWGQGTQVTVSSGGGGSGGGGSGGGGSGGGGSGGGGSGGGGSGGGGSEVQLVESGGGLVQAGESLRLSCAASGSTFDFKVMGWYRQPPGKQREGVAAIRLSGNMHYAESVKGRFTISKANAKNTVYLQMNSLRPEDTAVYYCKVNIRGQDYWGQGTQVTVSS', '%', 99),
  ('CXCR20034 (bispecific antibody, Biparatopic: two VHH joined by a GlySer linker; also called 163D2-35GS-2B2; 163D2-2B2; not shown: C-terminal c-myc tag and His6 tag coded by pAX100) EVQLVESGGGLVQAGGSLRLSCAASGRTFSDYAMGWFRQAPGKEREFVAAITWNGGRVFYTASVKGRFTISRDNAKNTMYLQMNSLKPEDTAVYYCAADKDRRTDYLGHPVAYWGQGTQVTVSSGGGGSGGGGSGGGGSGGGGSGGGGSGGGGSGGGGSEVQLVESGGELVQPGGSLRLSCAASGSILTINAMGWYRQAPGKQRELVVRRTRGGSTTYQDSVKGRFTISADIAKKTMYLQMNSLKPEDTAVYYCMLDDRGGVYWGQGTQVTVSS', '%', 100);
